Assay: Permeability in MDCK2 cells at 1 uM incubated for 3 hrs by LC-MS/MS method
Type: ADME, cell-based, Canis lupus familiaris, MDCK-II
Settings: dog, MDCK; read-out: permeability
endpoint label: Papp at 3 h, 1 µM (×10⁻⁶ cm/s)
Report as a plain number; the unit ×10⁻⁶ cm/s is understood.

INSERT INTO assay_data (structure_smiles_string, quantitative_result) VALUES
  ('CC(C)OC(=O)OCOc1c2c(c3n(c1=O)[C@]1(CC[C@@H]4C[C@@]41CO)N(C)C3=O)CCN(Cc1ccc(F)c(Cl)c1)C2=O', 19.7),
  ('CC(C)OC(=O)OCOc1c2c(c3n(c1=O)[C@@]1(CC[C@H]4C[C@H]41)N(C[C@H](C)O)C3=O)CCN(Cc1ccc(F)c(Cl)c1)C2=O', 23.5),
  ('CN1C(=O)c2c3c(c(O)c(=O)n2[C@]12CC[C@@H]1C[C@@]12CO)C(=O)N(Cc1ccc(F)c(Cl)c1)CC3', 8.4);

Data request, read-out Papp at 3 h, 1 µM, for C[C@H](O)CN1C(=O)c2c3c(c(O)c(=O)n2[C@@]12CC[C@H]1C[C@H]12)C(=O)N(Cc1ccc(F)c(Cl)c1)CC3
22.9

====

Assay: AUC (0 to infinity) in jugular vein of portal vein-cannulated beagle dog at 10 mg/kg, po by LC-MS/MS method
Assay type: ADME, organism-based, Canis lupus familiaris
Set-up: dose 10 mg/kg, time infinity, route oral
endpoint label: AUC(0-inf) (µM·h)
Report as a plain number; the unit µM·h is understood.

INSERT INTO results (structure_smiles_string, quantitative_result) VALUES
  ('CC(C)OC(=O)OCOc1c2c(c3n(c1=O)[C@]1(CC[C@@H]4C[C@@]41CO)N(C)C3=O)CCN(Cc1ccc(F)c(Cl)c1)C2=O', 0.037);

Attention now shifts to the item below.
Data request, read-out AUC(0-inf), for CC(C)OC(=O)OCOc1c2c(c3n(c1=O)[C@@]1(CC[C@H]4C[C@H]41)N(C[C@H](C)O)C3=O)CCN(Cc1ccc(F)c(Cl)c1)C2=O
0.034

====

Experiment: Half life in beagle dog at 0.5 mg/kg, iv by LC-MS/MS method
Conditions: in vivo
endpoint label: half-life (h)
Report as a plain number; the unit h is understood.

Data request, read-out half-life, for CN1C(=O)c2c3c(c(O)c(=O)n2[C@]12CC[C@@H]1C[C@@]12CO)C(=O)N(Cc1ccc(F)c(Cl)c1)CC3
5

====

Assay: Volume of distribution at steady state in Wistar-Hanover rat at 0.2 mg/kg, iv by LC-MS/MS method
Assay type: ADME, organism-based
Details: in vivo, read-out: Vdss
endpoint label: Vd (L/kg)
Report as a plain number; the unit L/kg is understood.

Data request, read-out Vd, for O=C1N[C@]2(CC[C@H]3C[C@H]32)n2c1c1c(c(O)c2=O)C(=O)N(Cc2ccc(F)c(Cl)c2)CC1
0.12

====

Experiment: Solubility in FaSSiF at pH 6.5 at room temperature incubated for 4 hrs
Format: physicochemical
Listed next: entries and their corresponding solubility at 4 h.
Report as a plain number; the unit µg/mL is understood.

Previously resolved entries follow.
INSERT INTO results (structure_smiles_string, endpoint_label, unit_of_measure, quantitative_result) VALUES
  ('CC(C)OC(=O)OCOc1c2c(c3n(c1=O)[C@@]1(CC[C@H]4C[C@H]41)N(C[C@H](C)O)C3=O)CCN(Cc1ccc(F)c(Cl)c1)C2=O', 'solubility at 4 h', 'µg/mL', 250),
  ('C[C@@H](CN1C(=O)c2c3c(c(O)c(=O)n2[C@@]12CC[C@H]1C[C@H]12)C(=O)N(Cc1ccc(F)c(Cl)c1)CC3)OP(=O)(O)O', 'solubility at 4 h', 'µg/mL', 2300),
  ('CN1C(=O)c2c3c(c(O)c(=O)n2[C@]12CC[C@@H]1C[C@@]12CO)C(=O)N(Cc1ccc(F)c(Cl)c1)CC3', 'solubility at 4 h', 'µg/mL', 30),
  ('C[C@H](O)CN1C(=O)c2c3c(c(O)c(=O)n2[C@@]12CC[C@H]1C[C@H]12)C(=O)N(Cc1ccc(F)c(Cl)c1)CC3', 'solubility at 4 h', 'µg/mL', 58);

Attention now shifts to the item below.
Data request, read-out solubility at 4 h, for CC(C)OC(=O)OCOc1c2c(c3n(c1=O)[C@]1(CC[C@@H]4C[C@@]41CO)N(C)C3=O)CCN(Cc1ccc(F)c(Cl)c1)C2=O
500
